- ASSAYED TARGET: human APJ receptor (Homo sapiens (Human), UniProt P35414)
- Sequence (P35414 whole entry): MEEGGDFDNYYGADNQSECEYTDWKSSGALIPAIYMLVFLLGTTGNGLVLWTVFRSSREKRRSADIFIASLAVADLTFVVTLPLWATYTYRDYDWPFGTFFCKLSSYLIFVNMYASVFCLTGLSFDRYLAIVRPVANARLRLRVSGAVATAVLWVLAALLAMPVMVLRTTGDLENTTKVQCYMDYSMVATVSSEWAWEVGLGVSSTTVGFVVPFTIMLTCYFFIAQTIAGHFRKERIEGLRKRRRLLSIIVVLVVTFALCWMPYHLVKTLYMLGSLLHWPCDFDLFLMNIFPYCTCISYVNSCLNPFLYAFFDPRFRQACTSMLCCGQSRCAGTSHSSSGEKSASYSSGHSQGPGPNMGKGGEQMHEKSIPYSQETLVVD
- TEST SUMMARY: biochemical
- EXPERIMENTAL CONDITIONS: [35S]GTPγS binding, CHO membranes expressing human APJ receptor; read-out: Activity hAPJ SPA EC50 IP
pEC50: −log10 of the molar value.
Note that class boundaries on pEC50 are lower level (below 8), middle level (8 to below 9), upper level (9 or more)

INSERT INTO assay_data (molecule, label_class) VALUES
  ('COc1ncnc(OC)c1-n1c(NS(=O)(=O)[C@@H](C)[C@H](C)c2ncc(F)cn2)nnc1-c1cnn2c1CCC2', 'middle level'),
  ('COc1cccc(OC)c1-n1c(NS(=O)(=O)[C@@H](C)[C@@H](OC(C)C)c2ncc(C)cn2)nnc1-c1ccn(C)n1', 'upper level'),
  ('COc1cccc(OC)c1-n1c(NS(=O)(=O)[C@@H](C)[C@H](OC)c2ncc(Cl)cn2)nnc1-c1cnn2c1CCC2', 'upper level'),
  ('COc1cccc(OC)c1-n1c(NS(=O)(=O)[C@H](C)[C@H](C)c2ncc(F)cn2)nnc1-c1nc(C)cs1 (single isomer, unassigned)', 'lower level'),
  ('COc1cccc(OC)c1-n1c(NS(=O)(=O)CCc2ccc(Cl)cc2)nnc1-c1cocn1', 'lower level'),
  ('COc1cccc(OC)c1-n1c(NS(=O)(=O)[C@@H](C)[C@H](OC)c2ncc(Cl)cn2)nnc1-c1noc2ccccc12', 'middle level'),
  ('COc1cccc(OC)c1-n1c(NS(=O)(=O)C(C)Cc2ncc(F)cn2)nnc1-c1cc(C)no1 (stereo in doubt)', 'lower level'),
  ('COc1cccc(OC)c1-n1c(NS(=O)(=O)[C@@H](C)[C@H](OC)c2ncc(C)cn2)nnc1-c1ccn(C(F)F)n1', 'middle level'),
  ('COc1cccc(OC)c1-n1c(NS(=O)(=O)[C@H]2CCCNC2)nnc1-c1ccn(C)n1 (mixture of isomers)', 'lower level'),
  ('CO[C@H](c1ncc(Cl)cn1)[C@H](C)S(=O)(=O)Nc1nnc(-c2noc3ccccc23)n1C1CC1', 'lower level'),
  ('COc1cccc(OC)c1-n1c(NS(=O)(=O)C[C@H](OC)c2ccc(Cl)cc2S(C)(=O)=O)nnc1-c1ccn(C)n1 (mixture of isomers) [Example 305.0]', 'upper level'),
  ('COCC1(n2c(NS(=O)(=O)[C@@H](C)[C@H](C)c3cnc(OC)cn3)nnc2-c2ccn(C)n2)CC1', 'lower level'),
  ('COc1cnc([C@@H](OC)[C@H](C)S(=O)(=O)Nc2nnc(-c3ccn(C)n3)n2-c2c(OC)cccc2OC)cn1 (single isomer, unassigned) [Example 309.0]', 'lower level'),
  ('COc1cnc([C@@H](C)[C@H](C)S(=O)(=O)Nc2nnc(-c3ccn(C)n3)n2-c2c(OC)ncnc2OC)nc1', 'middle level'),
  ('COc1ncnc(OC)c1-n1c(NS(=O)(=O)[C@@H](C)[C@H](C)c2ncc(C)cn2)nnc1-c1n[nH]c2ccccc12', 'lower level');

---

- ASSAYED TARGET: human APJ receptor (Homo sapiens (Human))
- TEST SUMMARY: biochemical
- EXPERIMENTAL CONDITIONS: [35S]GTPγS binding, CHO membranes expressing human APJ receptor; read-out: Activity hAPJ SPA EC50 IP
pEC50: −log10 of the molar value.
As shown below, each of these compounds has a reported pEC50 value.
RESULT TYPE: pEC50

INSERT INTO measurements (compound, result_type, readout_number) VALUES
  ('COc1ccc(S(C)(=O)=O)cc1-n1c(NS(=O)(=O)CCc2ccc(F)cc2)nnc1-c1cccs1', 'pEC50', 7.47),
  ('COc1cccc(OC)c1-n1c(NS(=O)(=O)[C@@H](C)[C@H](OC)c2ncc(Cl)cn2)nnc1-c1c(C)nc2ccccn12', 'pEC50', 6.92),
  ('COc1cccc(OC)c1-n1c(NS(=O)(=O)C[C@H](OC)c2ccc(Cl)cc2S(C)(=O)=O)nnc1-c1ccn(C)n1 (single isomer, unassigned) [Example 381.0]', 'pEC50', 9.54),
  ('COc1ccccc1-n1c(NS(=O)(=O)[C@@H](C)[C@H](C)c2ncc(F)cn2)nnc1-c1ccn(C)n1', 'pEC50', 8.06),
  ('COc1cccc(OC)c1-n1c(NS(=O)(=O)CCc2ccc(F)cc2C#N)nnc1-c1csc(C)n1', 'pEC50', 7.51),
  ('COc1cccc(OC)c1-n1c(NS(=O)(=O)C[C@H](O)c2ccc(F)cc2S(C)(=O)=O)nnc1-c1ccn(C)n1 (single isomer, unassigned) [Example 370.0]', 'pEC50', 8.51),
  ('COc1ccc2[nH]c(-c3nnc(NS(=O)(=O)[C@@H](C)[C@H](OC)c4ncc(C)cn4)n3-c3c(OC)cccc3OC)cc2c1', 'pEC50', 6.51),
  ('Cc1cnc([C@H](OC(C)C)[C@H](C)S(=O)(=O)Nc2nnc(-c3cnn4c3CCC4)n2-c2c(F)cccc2F)cn1', 'pEC50', 8.04),
  ('COc1cccc(OC)c1-n1c(NS(=O)(=O)[C@H](C)Cc2ncc(F)cn2)nnc1-c1ncccn1 (single isomer, unassigned) [Example 58.0]', 'pEC50', 7.77),
  ('COc1cccc(OC)c1-n1c(NS(=O)(=O)[C@@H](C)[C@H](C)c2ncc(Cl)cn2)nnc1-c1cc2n(n1)CCC2', 'pEC50', 9.49),
  ('COc1cccc(OC)c1-n1c(NS(=O)(=O)[C@H](C)Cc2ncc(F)cn2)nnc1-c1nc(C)cs1 (single isomer, unassigned) [Example 101.0]', 'pEC50', 9.15),
  ('COc1ncnc(OC)c1-n1c(NS(=O)(=O)[C@@H](C)[C@@H](OC(C)C)c2cnc(C)cn2)nnc1-c1ccn(C)n1', 'pEC50', 8.05),
  ('COCC1(n2c(NS(=O)(=O)[C@@H](C)[C@H](OC)c3ncc(Cl)cn3)nnc2-c2n[nH]c3c2CCC3)CCC1', 'pEC50', 8.89);
